Biological target: 5-hydroxytryptamine receptor 6 (Homo sapiens) (UniProt P50406)
Sequence (P50406 whole entry): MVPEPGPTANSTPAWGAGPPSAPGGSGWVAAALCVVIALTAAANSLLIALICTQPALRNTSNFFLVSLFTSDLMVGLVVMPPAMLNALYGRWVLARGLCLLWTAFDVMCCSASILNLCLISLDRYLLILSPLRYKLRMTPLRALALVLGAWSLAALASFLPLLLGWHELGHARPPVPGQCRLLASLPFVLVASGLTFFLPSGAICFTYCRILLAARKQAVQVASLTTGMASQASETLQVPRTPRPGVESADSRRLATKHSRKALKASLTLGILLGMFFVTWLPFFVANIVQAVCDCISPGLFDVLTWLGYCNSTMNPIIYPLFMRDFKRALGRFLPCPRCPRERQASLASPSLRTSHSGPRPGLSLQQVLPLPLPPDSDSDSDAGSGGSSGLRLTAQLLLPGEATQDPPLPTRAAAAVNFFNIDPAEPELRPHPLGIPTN
Conditions: Compound concentration 10 µM
Description: PDSP Primary Binding target: HTR6 - Compounds are tested at 10 uM concentration, plate are incubated at room temperature in the dark for 90 minutes. Reaction are stopped by vacuum filtration onto 0.3% polyethyleneimine soaked filter mats using Filtermate harvester. Scintilation cocktail is then melted onto microwave-dried filters on a hot plate and the radio activity is counted in Microbia counter.
Please respond with reported inhibition for every item in the list.
Reply numerically in %, unit not repeated.

Q. # query: inhibition of entry O=C(c1cc2c(cc1F)OC(c1ccc(F)cc1)(c1ccc(Cl)cc1Cl)O2)N1CCOCC1 (centres undefined)
A. -8.59

Q. # query: inhibition of entry CN1CCC(C(=O)c2cccc(NC(=O)c3c(F)cc(F)cc3F)n2)CC1
A. 11.4

Q. # query: inhibition of entry Cc1nn(C)c(C)c1-c1cccc2c1CC[C@H](N(C)C)C2
A. -8.86

Q. # query: inhibition of entry Cc1cccc([C@H](C)c2c[nH]cn2)c1C
A. 1.41

----------
Target: Histamine H1 receptor (Homo sapiens)
Details: Compound concentration 10 µM; call rule not given here
In this exercise, the only acceptable responses are t (active), f (inactive)

Q. Hi, do you know how Cc1ccccc1C(=O)Nc1ccc(C(=O)N2CCCC(O)c3cc(Cl)ccc32)c(C)c1 (stereo not given) came out in this test?
A. t

Q. Hi, do you know how N#Cc1ccc2[nH]cc(CCCCN3CCN(c4ccc5oc(C(N)=O)cc5c4)CC3)c2c1 came out in this test?
A. t

Q. Hi, do you know how Cc1cc(NC(=O)NCCN2CCC(O)(Cc3ccccc3)CC2)c2ccccc2n1 came out in this test?
A. f

Q. Hi, do you know how O=C(O)COc1cccc(CN(Cc2ccc(-n3cccn3)cc2)S(=O)(=O)c2cccnc2)c1 came out in this test?
A. f

Q. Hi, do you know how COc1ccnc(N2CCC3(CCCN(Cc4c[nH]c5ccccc45)C3=O)CC2)n1 came out in this test?
A. f

Q. Hi, do you know how COc1ccc(NC(=O)c2ccc(-c3ccc(-c4noc(C)n4)cc3C)cc2)cc1OCCN(C)C came out in this test?
A. f

Q. Hi, do you know how CCOC(=O)c1cc(C#N)c(N2CCC(C(=O)NS(=O)(=O)Cc3ccccc3)CC2)nc1C came out in this test?
A. f

Q. Hi, do you know how COc1ccc(S(=O)(=O)c2cc(OC)ccc2S(=O)(=O)c2ccc([C@H](C)NS(C)(=O)=O)cc2)cc1 came out in this test?
A. f

Q. Hi, do you know how CNC[C@H](O)c1cccc(O)c1 came out in this test?
A. f

Q. Hi, do you know how O=C(O)c1cc(-c2ccc(C3CCNCC3)cc2)c2ccc(-c3ccc(C(F)(F)F)cc3)cc2c1 came out in this test?
A. f

Q. Hi, do you know how O=c1ccc2ccc(OCCCCN3CCN(c4cccc5sccc45)CC3)cc2[nH]1 came out in this test?
A. t

Q. Hi, do you know how O=C(O)C1CN(Cc2ccc(OCc3ccc(Cl)c(Cl)c3)cc2)C1 came out in this test?
A. t

Q. Hi, do you know how CN1CC(=O)N=C1NC(=O)Nc1cccc(Cl)c1 came out in this test?
A. f

Q. Hi, do you know how Cc1nc(C#Cc2ccnc(Cl)c2)c(C)n1-c1ccc(OC(F)(F)F)cc1 came out in this test?
A. f

Q. Hi, do you know how Cc1c(P(=S)(c2ccccc2)c2ccccc2)n2ccccc2[n+]1C/C=C/c1ccccc1 came out in this test?
A. t

Q. Hi, do you know how CN(C(=O)Cc1ccc(Cl)c(Cl)c1)C(CN1CCCC1)c1cccc(OCC(=O)O)c1 (stereo not given) came out in this test?
A. f

Q. Hi, do you know how O=C(O)CC/C=C\C[C@@H]1CO[C@H](c2ccccc2Cl)O[C@@H]1c1ccccc1O came out in this test?
A. f

Q. Hi, do you know how Cc1nc(-c2ccc(-c3ccc(C(=O)N4CCc5cc6c(cc54)C4(CCN(C)CC4)CO6)cc3)c(C)c2)no1 came out in this test?
A. f

Q. Hi, do you know how CNc1nc(NCc2ccc(NS(C)(=O)=O)cc2Cl)cc(-c2ccccn2)n1 came out in this test?
A. f

Q. Hi, do you know how CCCCN1CCC(COC(=O)c2cc(Cl)c(N)c3c2OCCO3)CC1 came out in this test?
A. t

Q. Hi, do you know how Cc1cn2cc(CC(=O)N3CCC4(CC3)CN(Cc3ccc(-n5nccn5)cc3Cl)C4)nc2s1 came out in this test?
A. f

Q. Hi, do you know how O=C(O)Cn1c(C(=O)Nc2nc(-c3ccccc3Cl)cs2)cc2ccccc21 came out in this test?
A. f

Q. Hi, do you know how Cc1nc(C(=O)N2CCC[C@H]2Cc2nnc(-c3ccccc3)o2)c(-c2ccccc2F)s1 came out in this test?
A. f

Q. Hi, do you know how COc1ccc(Br)cc1S(=O)(=O)NC(=O)/C=C/c1ccccc1Cc1ccc2ccccc2c1 came out in this test?
A. f

Q. Hi, do you know how COc1ccc(OC(F)(F)F)cc1CN[C@H]1CCCN[C@H]1c1ccccc1 came out in this test?
A. t

----------
Please respond with reported inhibition for every item in the list.
Biological target: Alpha-1A adrenergic receptor (Homo sapiens) (UniProt P35348)
Sequence (P35348 whole entry): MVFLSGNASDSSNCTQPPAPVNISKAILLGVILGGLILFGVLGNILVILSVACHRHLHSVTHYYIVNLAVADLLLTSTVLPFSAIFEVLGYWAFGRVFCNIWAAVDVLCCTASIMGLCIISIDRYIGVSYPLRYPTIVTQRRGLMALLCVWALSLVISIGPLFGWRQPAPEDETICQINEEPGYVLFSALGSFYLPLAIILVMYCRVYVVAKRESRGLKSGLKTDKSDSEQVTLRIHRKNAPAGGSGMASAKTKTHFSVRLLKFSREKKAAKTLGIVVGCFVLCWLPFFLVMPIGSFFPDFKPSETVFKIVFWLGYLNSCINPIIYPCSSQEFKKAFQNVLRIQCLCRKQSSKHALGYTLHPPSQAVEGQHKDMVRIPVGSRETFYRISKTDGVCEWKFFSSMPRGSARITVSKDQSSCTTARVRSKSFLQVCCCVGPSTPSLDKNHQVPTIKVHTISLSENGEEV
Settings: Compound concentration 10 µM
Description: PDSP Primary Binding target: ADRA1A - Compounds are tested at 10 uM concentration, plate are incubated at room temperature in the dark for 90 minutes. Reaction are stopped by vacuum filtration onto 0.3% polyethyleneimine soaked filter mats using Filtermate harvester. Scintilation cocktail is then melted onto microwave-dried filters on a hot plate and the radio activity is counted in Microbia counter.
Reply numerically in %, unit not repeated.

Q. # query: inhibition of entry Nc1nc2c(c(N3CCNCC3)n1)CCC1=C2[C@@H]2CCCC[C@@H]2O1
A. -7.78

Q. # query: inhibition of entry CC(C)NCC(O)COc1cccc2[nH]ccc12 (stereo unspecified)
A. 32

Q. # query: inhibition of entry COc1ccc(Br)cc1S(=O)(=O)NC(=O)/C=C/c1ccccc1Cc1ccc2ccccc2c1
A. 17.8

Q. # query: inhibition of entry Cc1ccccc1C(=O)Nc1ccc(C(=O)N2CCCC(O)c3cc(Cl)ccc32)c(C)c1 (stereo unspecified)
A. 8.56

Q. # query: inhibition of entry CN(C(=O)Cc1ccc(Cl)c(Cl)c1)C(CN1CCCC1)c1cccc(OCC(=O)O)c1 (stereo unspecified)
A. -0.83

Q. # query: inhibition of entry Cc1cccc([C@H](C)c2c[nH]cn2)c1C
A. 63

Q. # query: inhibition of entry c1ccc(N2CCN(Cc3nc4ccccc4[nH]3)CC2)nc1
A. 6.23

Q. # query: inhibition of entry COC(=O)C1=C(C)NC(C)=C(C(=O)OCCCN2CCC(c3ccccc3)(c3ccccc3)CC2)[C@H]1c1cccc([N+](=O)[O-])c1
A. 98.9

Q. # query: inhibition of entry O=c1ccn([C@@H]2O[C@H](COP(=O)(O)OP(=O)(O)OP(=O)(O)O)[C@@H](O)[C@H]2O)c(=O)[nH]1
A. 2.2

Q. # query: inhibition of entry CC(C)(N)C(=O)N[C@H](COCc1ccccc1)C(=O)N1CCC2(CC1)CN(S(C)(=O)=O)c1ccccc12
A. 3.39

Q. # query: inhibition of entry CN(C)C(=O)C(CCN1CCC(O)(c2ccc(Cl)cc2)CC1)(c1ccccc1)c1ccccc1
A. 42.9

Q. # query: inhibition of entry NCCc1cn(S(=O)(=O)c2c(Cl)nc3sccn23)c2ccccc12
A. 57.5

Q. # query: inhibition of entry CCCSc1nc(N[C@@H]2C[C@H]2c2ccc(F)c(F)c2)c2nnn([C@@H]3C[C@H](OCCO)[C@@H](O)[C@H]3O)c2n1
A. 11.7

Q. # query: inhibition of entry CS(=O)(=O)NC[C@H]1CC[C@H](Nc2nc3c(s2)CCSc2ccccc2-3)CC1
A. -9.44

Q. # query: inhibition of entry CN(C)S(=O)(=O)c1ccc(NC(=S)N2CCC(C(O)(c3ccccc3)c3ccccc3)CC2)cc1
A. -0.67

Q. # query: inhibition of entry NC[C@@H]1O[C@H](C23CC4CC(CC(C4)C2)C3)Cc2c1ccc(O)c2O
A. -1.53

----------
Target: Translocator protein (Homo sapiens) (UniProt P30536)
Sequence (P30536 whole entry): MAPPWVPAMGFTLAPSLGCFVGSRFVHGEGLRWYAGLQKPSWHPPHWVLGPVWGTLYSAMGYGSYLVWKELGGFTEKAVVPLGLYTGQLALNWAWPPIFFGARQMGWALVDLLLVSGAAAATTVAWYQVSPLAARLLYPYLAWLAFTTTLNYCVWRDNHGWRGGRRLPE
Conditions: Compound concentration 10 µM
Description: PDSP Primary Binding target: TSPO - Compounds are tested at 10 uM concentration, plate are incubated at room temperature in the dark for 90 minutes. Reaction are stopped by vacuum filtration onto 0.3% polyethyleneimine soaked filter mats using Filtermate harvester. Scintilation cocktail is then melted onto microwave-dried filters on a hot plate and the radio activity is counted in Microbia counter.
Property measured: inhibition (%)
Reply numerically in %, unit not repeated.

Q. # query: inhibition of entry CC(C)(N)C(=O)N[C@H](COCc1ccccc1)C(=O)N1CCC2(CC1)CN(S(C)(=O)=O)c1ccccc12
A. 9.25

Q. # query: inhibition of entry COc1ccc(Br)cc1S(=O)(=O)NC(=O)/C=C/c1ccccc1Cc1ccc2ccccc2c1
A. 17.7

Q. # query: inhibition of entry Cc1csc(NC(=O)c2cc(F)cc(Oc3cncnc3)c2)n1
A. 37.4

Q. # query: inhibition of entry CC1=C2C[C@H]3[C@@H](CC=C4C[C@@H](O)CC[C@@]43C)[C@@H]2CC[C@]12O[C@@H]1C[C@H](C)CN[C@H]1[C@H]2C
A. 13.5

Q. # query: inhibition of entry C[C@@H](NCCc1ccc(O)cc1)[C@@H](O)c1ccc(O)cc1 (relative stereo)
A. 3.95

Q. # query: inhibition of entry NC[C@H](O)c1ccc(O)c(O)c1
A. 4.34

Q. # query: inhibition of entry Cc1csc2c(N[C@@H](C)CN3CCN(S(=O)(=O)c4ccc(Cl)c(Cl)c4)CC3)ncnc12
A. 73.6

Q. # query: inhibition of entry Cc1c(F)cccc1NC(=O)Nc1ccc(Cl)c(S(=O)(=O)[C@H]2CCCNC2)c1O
A. 8.9
